- Assay target: Integrin alpha-IIb/beta-3 (Homo sapiens, UniProt P05106+P08514)
- Sequence (P05106 27-788 limits assumed): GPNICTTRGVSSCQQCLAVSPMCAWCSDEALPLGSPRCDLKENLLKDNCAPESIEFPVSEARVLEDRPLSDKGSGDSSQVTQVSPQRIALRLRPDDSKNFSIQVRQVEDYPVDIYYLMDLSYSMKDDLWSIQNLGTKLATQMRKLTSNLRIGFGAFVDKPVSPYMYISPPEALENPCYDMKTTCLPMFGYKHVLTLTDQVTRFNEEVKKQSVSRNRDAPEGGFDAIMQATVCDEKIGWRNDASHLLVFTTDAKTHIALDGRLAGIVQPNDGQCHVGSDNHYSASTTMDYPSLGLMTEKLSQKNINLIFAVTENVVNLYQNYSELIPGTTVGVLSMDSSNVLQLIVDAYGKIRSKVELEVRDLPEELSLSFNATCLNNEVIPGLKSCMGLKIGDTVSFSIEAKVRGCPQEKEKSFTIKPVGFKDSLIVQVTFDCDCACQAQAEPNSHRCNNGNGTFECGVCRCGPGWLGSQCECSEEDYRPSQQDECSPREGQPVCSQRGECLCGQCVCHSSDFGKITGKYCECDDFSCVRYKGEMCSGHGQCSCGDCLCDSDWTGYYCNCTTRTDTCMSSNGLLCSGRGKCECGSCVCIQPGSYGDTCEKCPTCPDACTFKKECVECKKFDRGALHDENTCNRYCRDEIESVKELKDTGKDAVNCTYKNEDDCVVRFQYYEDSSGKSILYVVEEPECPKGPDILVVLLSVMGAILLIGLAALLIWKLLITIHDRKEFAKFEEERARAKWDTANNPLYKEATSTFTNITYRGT
- Sequence (P08514 32-887 limits assumed): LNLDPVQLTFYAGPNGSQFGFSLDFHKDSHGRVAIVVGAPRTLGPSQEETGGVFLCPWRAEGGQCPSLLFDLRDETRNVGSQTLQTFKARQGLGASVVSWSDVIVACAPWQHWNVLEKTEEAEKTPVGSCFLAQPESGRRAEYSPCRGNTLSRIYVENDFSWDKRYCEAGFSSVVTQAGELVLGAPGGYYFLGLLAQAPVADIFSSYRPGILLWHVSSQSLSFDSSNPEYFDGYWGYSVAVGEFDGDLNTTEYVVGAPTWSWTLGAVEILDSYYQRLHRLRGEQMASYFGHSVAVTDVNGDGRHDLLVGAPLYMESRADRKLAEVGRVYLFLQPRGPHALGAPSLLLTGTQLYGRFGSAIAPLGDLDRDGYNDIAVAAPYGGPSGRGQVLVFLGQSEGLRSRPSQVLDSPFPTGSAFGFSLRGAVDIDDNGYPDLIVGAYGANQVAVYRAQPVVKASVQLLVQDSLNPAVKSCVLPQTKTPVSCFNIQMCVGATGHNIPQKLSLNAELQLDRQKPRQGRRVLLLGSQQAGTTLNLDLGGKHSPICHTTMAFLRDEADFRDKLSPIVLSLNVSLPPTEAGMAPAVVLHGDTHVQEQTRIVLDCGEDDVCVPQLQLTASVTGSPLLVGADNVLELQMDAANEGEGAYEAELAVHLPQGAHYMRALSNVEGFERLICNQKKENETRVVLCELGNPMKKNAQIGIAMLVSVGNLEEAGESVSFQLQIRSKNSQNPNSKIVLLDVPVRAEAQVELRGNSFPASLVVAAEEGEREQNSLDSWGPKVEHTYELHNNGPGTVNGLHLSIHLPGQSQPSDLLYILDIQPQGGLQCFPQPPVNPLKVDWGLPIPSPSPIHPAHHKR
- Sequence (P08514 891-1039 limits assumed): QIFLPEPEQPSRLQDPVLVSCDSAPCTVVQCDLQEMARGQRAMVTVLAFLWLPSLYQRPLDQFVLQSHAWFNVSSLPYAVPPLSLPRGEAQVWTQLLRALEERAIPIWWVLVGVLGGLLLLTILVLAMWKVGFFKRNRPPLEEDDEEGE
- Assay comment: Inhibitory activity was determined against human alpha IIb beta3 integrin
pIC50: −log10 of the molar value.
Known pIC50 of a selection of molecules

# Molecule, pIC50
data = [
    ("CC(C)COC(=O)N[C@@H](CCC(=O)N1CCN(c2cccc(NC3=NCC(F)CN3)c2)CC1)C(=O)O (stereo partly drawn)", "< 6.00"),
    ("CCOC(=O)N[C@@H](CCC(=O)N1CCN(c2cccc(NC3=NCCCN3)c2)CC1)C(=O)O", "< 6.00"),
    ("O=C(NCc1ccccc1)N[C@@H](CCC(=O)N1CCN(c2cccc(NC3=NCCCN3)c2)CC1)C(=O)O", "< 6.00"),
]

* * *

- Assay target: Integrin alpha-V/beta-3 and alpha-IIb/beta 3 (Homo sapiens) (UniProt P05106+P06756+P08514)
- Assay comment: Ratio of inhibitory activity against human alpha V beta-3 integrin to that of alpha IIb beta-3 integrin
- Format: protein assay
Quantity name: Ratio

# Compound, Limit qualifier, Quantitative result
records = [
    ("O=C(N[C@@H](CCC(=O)N1CCN(c2cccc(NC3=NCC(O)CN3)c2)CC1)C(=O)O)OCc1ccccc1 (some centres not stated)", "=", 2300),
    ("CC(C)COC(=O)N[C@@H](CCC(=O)N1CCN(c2cccc(NC3=NCC(F)CN3)c2)CC1)C(=O)O (some centres not stated)", ">", 18000),
    ("O=C(NCc1ccccc1)N[C@@H](CCC(=O)N1CCN(c2cccc(NC3=NCCCN3)c2)CC1)C(=O)O", ">", 710),
    ("O=C(N[C@@H](CCC(=O)N1CCN(c2cccc(NC3=NCCN3)c2)CC1)C(=O)O)OCc1ccccc1", "=", 4500),
    ("O=C(Cc1ccccc1)N[C@@H](CCC(=O)N1CCN(c2cccc(NC3=NCCCN3)c2)CC1)C(=O)O", ">", 150),
    ("CCNC(=O)N[C@@H](CCC(=O)N1CCN(c2cccc(NC3=NCCCN3)c2)CC1)C(=O)O", ">", 280),
    ("Cc1cc(C)c(S(=O)(=O)N[C@@H](CCC(=O)N2CCN(c3cccc(NC4=NCCCN4)c3)CC2)C(=O)O)c(C)c1", "=", 140),
]

* * *

Known Ratio of a selection of compounds
- Assay target: Integrin alpha-V/beta-3 and alpha-IIb/beta 3 (Homo sapiens) (UniProt P05106+P06756+P08514)
- Assay comment: Ratio of inhibitory activity against human alpha V beta-3 integrin to that of alpha IIb beta-3 integrin
- Format: protein assay

# Compound, Ratio
rows = [
    ("CC(C)COC(=O)N[C@@H](CCC(=O)N1CCN(c2cccc(NC3=NCC(O)CN3)c2)CC1)C(=O)O (stereo partly drawn)", "> 33000"),
    ("CCOC(=O)N[C@@H](CCC(=O)N1CCN(c2cccc(NC3=NCCCN3)c2)CC1)C(=O)O", "> 1700"),
    ("O=C(N[C@@H](CCC(=O)N1CCN(c2cccc(NC3=NCCCCN3)c2)CC1)C(=O)O)OCc1ccccc1", "> 18000"),
    ("O=C(N[C@@H](CCC(=O)N1CCN(c2cccc(NC3=NCC(F)CN3)c2)CC1)C(=O)O)OCc1ccccc1 (stereo partly drawn)", 8600),
    ("CC(C)COC(=O)N[C@@H](CCC(=O)N1CCN(c2cccc(NC3=NCC(C)(C)CN3)c2)CC1)C(=O)O", "> 2600"),
    ("O=C(O)[C@H](CCC(=O)N1CCN(c2cccc(NC3=NCCCN3)c2)CC1)NS(=O)(=O)c1ccccc1", 63),
    ("O=C(N[C@@H](CCC(=O)N1CCN(c2cccc(NC3=NCCCN3)c2)CC1)C(=O)O)OCc1ccccc1", 11000),
    ("CC(C)COC(=O)N[C@@H](CCC(=O)N1CCN(c2cccc(NC3=NCCCN3)c2)CC1)C(=O)O", "> 3100"),
]

Ref: ChEMBL document CHEMBL1146737
